Assignment: determine reported log10 of IC50 for the given compounds.
Target: full-length human PLD1 (Homo sapiens (Human))
Sequence (Q13393 other isoform, or with tags, fused parts or gaps): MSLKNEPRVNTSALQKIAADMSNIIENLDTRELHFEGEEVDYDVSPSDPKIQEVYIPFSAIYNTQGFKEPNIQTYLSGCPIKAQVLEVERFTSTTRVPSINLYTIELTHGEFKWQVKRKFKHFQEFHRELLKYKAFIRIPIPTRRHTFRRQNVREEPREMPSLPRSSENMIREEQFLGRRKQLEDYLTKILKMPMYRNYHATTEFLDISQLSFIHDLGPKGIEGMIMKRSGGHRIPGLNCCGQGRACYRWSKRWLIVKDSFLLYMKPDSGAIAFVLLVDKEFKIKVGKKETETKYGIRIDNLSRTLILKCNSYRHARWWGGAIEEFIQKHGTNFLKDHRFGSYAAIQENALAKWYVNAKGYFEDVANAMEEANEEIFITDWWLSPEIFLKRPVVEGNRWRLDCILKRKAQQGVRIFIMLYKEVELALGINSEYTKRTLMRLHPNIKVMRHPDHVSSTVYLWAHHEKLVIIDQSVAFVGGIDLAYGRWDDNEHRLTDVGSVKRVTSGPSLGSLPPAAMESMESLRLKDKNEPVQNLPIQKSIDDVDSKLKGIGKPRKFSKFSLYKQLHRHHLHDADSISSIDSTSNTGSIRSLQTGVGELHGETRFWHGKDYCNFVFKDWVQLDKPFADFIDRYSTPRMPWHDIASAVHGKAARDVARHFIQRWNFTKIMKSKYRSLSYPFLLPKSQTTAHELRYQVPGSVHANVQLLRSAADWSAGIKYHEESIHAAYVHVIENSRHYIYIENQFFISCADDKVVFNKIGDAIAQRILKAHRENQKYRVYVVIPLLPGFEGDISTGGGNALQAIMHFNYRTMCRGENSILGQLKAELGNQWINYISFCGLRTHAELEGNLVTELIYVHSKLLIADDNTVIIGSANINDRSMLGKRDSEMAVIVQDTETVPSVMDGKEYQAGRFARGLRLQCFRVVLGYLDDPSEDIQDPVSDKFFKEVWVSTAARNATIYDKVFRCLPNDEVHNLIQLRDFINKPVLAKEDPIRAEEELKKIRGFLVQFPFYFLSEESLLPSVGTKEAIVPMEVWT
Experiment: Evaluation of human PLD1 enzyme inhibitory activity (Amplex Red / choline oxidase fluorescence)
Format: biochemical
Conditions: full-length human PLD1 enzyme; read-out: PLD1 IC50
Response schema: value (number) is log10 of IC50 in units of nM.

// query Observed log10 of IC50 on full-length human PLD1 (Homo sapiens (Human)) for `Cc1ccncc1C1=NNC(=O)O[C@]12CC[C@@H](C[C@H](C)NC(=O)c1nc3ccccc3[nH]1)CC2` , please.
// result 1.30

// query Observed log10 of IC50 on full-length human PLD1 (Homo sapiens (Human)) for `C[C@@H](C[C@H]1CC[C@]2(CC1)OC(=O)NN=C2c1ccc(C#N)cc1Br)NC(=O)N1CCn2nncc2C1` , please.
// result 1.26

// query Observed log10 of IC50 on full-length human PLD1 (Homo sapiens (Human)) for `CNC(=O)C(=O)N[C@@H](C)C[C@H]1CC[C@]2(CC1)OC(=O)NN=C2c1cn(CC(F)F)nc1I` , please.
// result 1.41

// query Observed log10 of IC50 on full-length human PLD1 (Homo sapiens (Human)) for `Cc1cc(C(=O)N[C@@H](C)C[C@H]2CC[C@]3(CC2)OC(=O)NN=C3c2ccccc2OC(F)(F)F)[nH]n1` , please.
// result 1.92

// query Observed log10 of IC50 on full-length human PLD1 (Homo sapiens (Human)) for `Cc1cc(C(=O)N[C@H](C)CN2CCC3(CC2)OC(=O)NN=C3c2ccc(F)cc2Br)[nH]n1` , please.
// result 3.31

// query Observed log10 of IC50 on full-length human PLD1 (Homo sapiens (Human)) for `CNC(=O)C(=O)N[C@@H](C)C[C@H]1CC[C@]2(CC1)OC(=O)NN=C2c1cnc(C(F)(F)F)cc1C` , please.
// result 1.62

// query Observed log10 of IC50 on full-length human PLD1 (Homo sapiens (Human)) for `Cc1cc(C(=O)N[C@@H](C)CN2CCC3(CC2)OC(=O)NN=C3c2ccc(Br)cc2C(F)(F)F)[nH]n1` , please.
// result 1.51

// query Observed log10 of IC50 on full-length human PLD1 (Homo sapiens (Human)) for `[2H]C([2H])([C@H](C)NC(=O)c1cnn(C)c1)N1CCC2(CC1)OC(=O)NN=C2c1ccc(F)cc1Br` , please.
// result 1.41

// query Observed log10 of IC50 on full-length human PLD1 (Homo sapiens (Human)) for `COc1cc(C)c(C2=NNC(=O)O[C@]23CC[C@@H](C[C@H](C)NC(=O)NCc2ccccc2F)CC3)cn1` , please.
// result 2.39

// query Observed log10 of IC50 on full-length human PLD1 (Homo sapiens (Human)) for `Cc1cc(C(=O)N[C@@H](C)CN2CCC3(CC2)OC(=O)NN=C3c2ccc(C#N)cc2C(F)(F)F)[nH]n1` , please.
// result 1.73

// query Observed log10 of IC50 on full-length human PLD1 (Homo sapiens (Human)) for `Cc1cc(C(=O)N[C@@H](C)CN2CCC3(CC2)OC(=O)NN=C3c2ccc(C#N)cc2Br)[nH]n1` , please.
// result 1.40

// query Observed log10 of IC50 on full-length human PLD1 (Homo sapiens (Human)) for C[C@@H](C[C@H]1CC[C@]2(CC1)OC(=O)NN=C2c1ccc(F)cc1Br)NC(=O)C(F)Cl (mixture of isomers) , please.
// result 2.39

// query Observed log10 of IC50 on full-length human PLD1 (Homo sapiens (Human)) for `C[C@@H](C[C@H]1CC[C@]2(CC1)OC(=O)NN=C2c1ccc(F)cc1I)NC(=O)NC1CC1` , please.
// result 1.60

// query Observed log10 of IC50 on full-length human PLD1 (Homo sapiens (Human)) for `COc1cc(C)c(C2=NNC(=O)O[C@]23CC[C@@H](C[C@H](C)NC(=O)OCc2ccccc2)CC3)cn1` , please.
// result 1.18
